Just for reference, paper PMC9061857 is where these values come from.

Molecular target: human GzmB (hGzmB) (Homo sapiens, UniProt P10144)
Construct: For active GzmB vs pro-GzmB, p < 0.0001
Sequence (P10144 21-247): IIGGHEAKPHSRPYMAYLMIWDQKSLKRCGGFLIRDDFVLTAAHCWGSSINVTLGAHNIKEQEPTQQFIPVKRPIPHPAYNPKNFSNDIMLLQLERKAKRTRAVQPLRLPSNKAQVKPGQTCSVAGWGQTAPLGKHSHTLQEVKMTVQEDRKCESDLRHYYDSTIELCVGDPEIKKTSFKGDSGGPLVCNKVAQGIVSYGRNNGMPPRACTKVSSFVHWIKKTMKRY
Assay: Fluorescence assay with recombinant hGzmB (fluorogenic response, time course)
Type: biochemical
Details: probe 25 μM, hGzmB 20 nM; Data 1
Where no end group is shown, it is not given here.
recorded-metric: S/N ratios

[
  {
    "substance": "IEPDSL [H3, FRET hexapeptide IEPDSL]",
    "readout-number": 68
  },
  {
    "substance": "IEPDAG [H1, FRET hexapeptide IEPDAG]",
    "readout-number": 61
  },
  {
    "substance": "IEPDSG [H2, FRET hexapeptide IEPDSG]",
    "readout-number": 67
  },
  {
    "substance": "IEPDWL [H4, FRET hexapeptide IEPDWL]",
    "readout-number": 78
  }
]
